procedure-details: chemical genetic growth profiling, strain panel (AID 1159580);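 further: tested at 20 µM; growth read once vehicle control cultures reached saturation at 30 °C; 1 = growth at the plate median or of vehicle wells; lower values mean less growth of the strain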
cond: S. cerevisiae deletion strains, growth OD, locus YPR141C, strain kar3, stronger effect = lower value
The whole screen tested about 5,500 compounds, of which about 2,000 (36%) were called active. Another 18% or so got no clear call; they are omitted. Some of the results follow.
reported-endpoint: normalized growth
One number for each entry.

I would be grateful if you could provide normalized growth for each of the following entries.
1. CC(=O)O[C@H]1C[C@@H](O)C(C)(C)C2C[C@@H](OC(C)=O)[C@]3(C)C(CC[C@@]4(C)[C@H](c5ccoc5)OC(=O)C5OC543)[C@]21C (stereo partly drawn)
2. CC(=O)O[C@@H]1CC2C(C)(C)[C@H](O)C[C@H](O)[C@]2(C)C2CC[C@@]3(C)[C@H](c4ccoc4)OC(=O)[C@H]4O[C@]43[C@@]21C (stereo partly drawn)

0.986
0.982

I would be grateful if you could provide normalized growth for each of the following entries.
1. COc1cccc(-c2cc(=O)c3cc(OC)ccc3o2)c1
2. CC(=O)O[C@@H]1CC2C(C)(C)CCC(=O)[C@]2(C)C2CC[C@@]3(C)[C@H](c4ccoc4)OC(=O)C4OC43[C@@]21C (stereo partly drawn)
3. CC(=O)Oc1cc(OC(C)=O)c2c(=O)c(-c3ccccc3)coc2c1
4. COc1ccc(-c2coc3cc(OC)cc(O)c3c2=O)cc1
5. Nc1nc(N)c2nc(-c3ccccc3)c(N)nc2n1
6. CC(=O)OC1CC2C(C)(C)CCCC2(C)C2CCC3(C)C(c4ccoc4)OC(=O)C4OC43C12C (stereo not drawn)

1. 1.07
2. 0.996
3. 0.979
4. 0.99
5. 1.01
6. 1.02
